# subjectOfTest: T1, cTnI quality control product recombinant protein (human, UniProt P19429 1-210, limits assumed)
# T1 construct: the assay paragraphs only say cTnI; also called cardiac troponin I; cTnI antigen
# experimentalProtocol: AMC biosensor, antibody on sensor
Parameter: koff. Scope: all listed entries.
observationType: koff (s⁻¹)

# binder, observationType, measurementUnit, endpointResult
records = [
    ("Mutation 1-46 (antibody, V domains shown) VH: QVQLQQSGTELAKPGASVKFSCKASGYTFTSYWMYWIKQRPGQGLEWIGYLNPSSGHTDYNQKFKDKATLTADKSSSTAYMQLNSLTSEDSAVYYCARRYFGPFGMDYWGQGTSVTVSS VL: EIFLTQSPAIMSASPGEKVTMTCSASTSVSYVHWYQQKSGTSPKRWIYDTSKLASGIPVRFSGSGSGTSYSLTISSMEAEDAATYYCQQWSSNPYTFGGGTKLEIKR", "koff", "s⁻¹", 0.000118),
    ("Mutation 1-17 (antibody, V domains shown) VH: QVQLQQSGTELAKPGASVKFSCKASGYTFSSYWMYWIKQRPGQGLEWIGYINPSTGHTDYNQRFKDKATLTADKSSSTAYMQLNSLTSEDSAVYYCARKYWGPFGMDYWGQGTSVTVSS VL: EIFLTQSPAIMSASPGEKVTMTCSASSSVSYVHWYQQKSGTSPKRWIYDTSKIASGIPVRFSGSGSGTSYSLTISSMEAEDAATYYCQQWSSQPYTFGGGTKLEIKR", "koff", "s⁻¹", "9.97e-05"),
]

Values were extracted from patent US20220033483A1.
